These entries and their values trace back to the supplement of paper PMC10567573.

Recorded protein stability index values for a group of variants are listed next.
B1: PLAGL1 (parent)
chain: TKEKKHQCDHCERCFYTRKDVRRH

# Variants of: B1
# Run description: protein stability index of a GFP-peptide fusion (GPS, HEK-293T) (PSI 1-6); higher = more stable;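 further: lentivirally expressed fusions sorted by FACS into six bins by GFP to DsRed ratio, PSI derived from sequencing read proportions per bin multiplied by bin number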
# Condition label: c terminus: a fixed tail appended
Lab note: record just the number, no unit beside it.

Request: Quick one: protein stability index of TDEKKHQCDHCERCFYTRKDVRRH [K2D] ?
Response: 4.04

Request: Quick one: protein stability index of TKEKKHQCDHCERCFYTQKDVRRH [R18Q] ?
Response: 3.38

Request: Quick one: protein stability index of TKEKKHQCDHCFRCFYTRKDVRRH [E12F] ?
Response: 3.12

Request: Quick one: protein stability index of TKEKKHQCDHCERCFYTRKDIRRH [V21I] ?
Response: 3.25

Request: Quick one: protein stability index of TKEKKHQCDHCERCFYTRKDERRH [V21E] ?
Response: 3.9

Request: Quick one: protein stability index of TKEKKHQCDHCERCFYTRKDYRRH [V21Y] ?
Response: 3.98

Request: Quick one: protein stability index of TKEKKHQCDHCERCFYTLKDVRRH [R18L] ?
Response: 3.76

Request: Quick one: protein stability index of TKFKKHQCDHCERCFYTRKDVRRH [E3F] ?
Response: 3.29

Request: Quick one: protein stability index of TKEKKHQCDHCEWCFYTRKDVRRH [R13W] ?
Response: 2.61

Request: Quick one: protein stability index of TKEAKHQCDHCERCFYTRKDVRRH [K4A] ?
Response: 3.32

Request: Quick one: protein stability index of TKEKKHQCDHCERFFYTRKDVRRH [C14F] ?
Response: 3.18

Request: Quick one: protein stability index of TKEKKHQCDPCERCFYTRKDVRRH [H10P] ?
Response: 3.4

Request: Quick one: protein stability index of TKEKKHQCDHCERCFYTRKDSRRH [V21S] ?
Response: 3.01

Request: Quick one: protein stability index of TKEKKHQCDHCERCFYTRKDVRVH [R23V] ?
Response: 3.08

Request: Quick one: protein stability index of TKEKKHQCDHWERCFYTRKDVRRH [C11W] ?
Response: 3.46

Request: Quick one: protein stability index of TKEKKHQCQHCERCFYTRKDVRRH [D9Q] ?
Response: 3

Request: Quick one: protein stability index of TKEKKHQCDHCERCFYTRKDVSRH [R22S] ?
Response: 3.71

Request: Quick one: protein stability index of TKEKKDQCDHCERCFYTRKDVRRH [H6D] ?
Response: 2.91

Request: Quick one: protein stability index of TKEKKHQCDHCERCFKTRKDVRRH [Y16K] ?
Response: 3.14

Request: Quick one: protein stability index of TKEKKHQCDHMERCFYTRKDVRRH [C11M] ?
Response: 3.57

Request: Quick one: protein stability index of HKEKKHQCDHCERCFYTRKDVRRH [T1H] ?
Response: 3.12

Request: Quick one: protein stability index of TKEKKHQDDHCERCFYTRKDVRRH [C8D] ?
Response: 3.61
